# Tested on: P. vulgatus RND KO;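 also: active when median AUC fell below 0.1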
# Experiment Notes: growth AUC normalised to DMSO control (median) (fraction of control); higher = less growth inhibition, active = hit call of the paper
# Particulars: 20 µM
Where a name gives a salt, the structure may show the parent alone.
Hi there, I'd appreciate the recorded growth AUC normalised to DMSO control for every entry that follows.
Numbers only.

A selection of reference data follows.
Compound: N#Cc1nn(-c2c(Cl)cc(C(F)(F)F)cc2Cl)c(N)c1[S+]([O-])C(F)(F)F (configuration not stated) [Fipronil]
Meas Value: 0.985

Compound: CC(CCc1ccccc1)NC(C)C(O)c1ccc(O)cc1 (configuration not stated) [Nylidrin]
Meas Value: 1

Compound: CN(C)[C@@H]1C(=O)C(C(N)=O)=C(O)[C@@]2(O)C(=O)C3=C(O)c4c(O)cccc4[C@@](C)(O)[C@H]3[C@H](O)[C@@H]12 [Oxytetracycline dihydrate]
Meas Value: 0.00913

I would be grateful if you could provide growth AUC normalised to DMSO control for each of the following entries.
1. CC(C)N(CCC(C(N)=O)(c1ccccc1)c1ccccn1)C(C)C (configuration not stated) [Disopyramide]
2. CN1C[C@H](C(=O)N[C@]2(C)O[C@@]3(O)[C@@H]4CCCN4C(=O)[C@H](Cc4ccccc4)N3C2=O)C[C@@H]2c3cccc4[nH]cc(c34)C[C@H]21 [Dihydroergotamine tartrate]
3. CCN(CC)C(C)C(=O)c1ccccc1 (configuration not stated) [Amfepramone hydrochloride]
4. CCn1cc(C(=O)O)c(=O)c2cc3c(cc21)OCO3 [Oxolinic acid]

Out:
1: 1; 2: 0.989; 3: 1.01; 4: 0.951

====

Hi there, I'd appreciate the recorded growth AUC normalised to DMSO control for every entry that follows.
# Tested on: Shigella flexneri
# Experiment Notes: growth AUC normalised to DMSO control (fraction of control); higher = less growth inhibition, active = hit call of the paper
# Particulars: 20 µM
One number for each entry.

A selection of reference data follows.
Compound: COc1cc([C@@H]2c3cc4c(cc3[C@H](O)[C@H]3COC(=O)[C@H]23)OCO4)cc(OC)c1OC [Podophyllotoxin]
growth AUC normalised to DMSO control: 0.999
//
Compound: CC(=O)O[C@H]1CC[C@@]2(C)C(=CC[C@@H]3[C@@H]2CC[C@]2(C)C(=O)CC[C@@H]32)C1 [Dehydroisoandosterone 3-acetate]
growth AUC normalised to DMSO control: 0.966
//
Compound: C=C(C)[C@@H]1[C@H]2OC(=O)[C@@H]1[C@]1(O)C[C@H]3O[C@]34C(=O)O[C@H]2[C@]14C [Picrotoxinin]
growth AUC normalised to DMSO control: 0.96
//
Compound: CCC(=O)O[C@@](Cc1ccccc1)(c1ccccc1)[C@@H](C)CN(C)C [Levopropoxyphene napsylate]
growth AUC normalised to DMSO control: 1.04
//
Compound: CC(O)(CS(=O)(=O)c1ccc(F)cc1)C(=O)Nc1ccc(C#N)c(C(F)(F)F)c1 (stereo not drawn) [Bicalutamide]
growth AUC normalised to DMSO control: 1.08

I would be grateful if you could provide growth AUC normalised to DMSO control for each of the following entries.
1. NCC(CC(=O)O)c1ccc(Cl)cc1 (stereo not drawn) [Baclofen]
2. CCCC[N+]1(C)[C@@H]2C[C@@H](OC(=O)[C@H](CO)c3ccccc3)C[C@H]1[C@@H]1O[C@@H]12 (stereo partly drawn) [N-Butylscopolammonium bromide]
3. CC(=O)NC1CCSC1=O (stereo not drawn) [Citiolone]

Out:
1: 1.01; 2: 0.993; 3: 1
